testSystem: Glutamate receptor ionotropic, NMDA 1/2B (Rattus norvegicus, UniProt Q00960+P35439)
Sequence (Q00960 whole entry, other chains not shown): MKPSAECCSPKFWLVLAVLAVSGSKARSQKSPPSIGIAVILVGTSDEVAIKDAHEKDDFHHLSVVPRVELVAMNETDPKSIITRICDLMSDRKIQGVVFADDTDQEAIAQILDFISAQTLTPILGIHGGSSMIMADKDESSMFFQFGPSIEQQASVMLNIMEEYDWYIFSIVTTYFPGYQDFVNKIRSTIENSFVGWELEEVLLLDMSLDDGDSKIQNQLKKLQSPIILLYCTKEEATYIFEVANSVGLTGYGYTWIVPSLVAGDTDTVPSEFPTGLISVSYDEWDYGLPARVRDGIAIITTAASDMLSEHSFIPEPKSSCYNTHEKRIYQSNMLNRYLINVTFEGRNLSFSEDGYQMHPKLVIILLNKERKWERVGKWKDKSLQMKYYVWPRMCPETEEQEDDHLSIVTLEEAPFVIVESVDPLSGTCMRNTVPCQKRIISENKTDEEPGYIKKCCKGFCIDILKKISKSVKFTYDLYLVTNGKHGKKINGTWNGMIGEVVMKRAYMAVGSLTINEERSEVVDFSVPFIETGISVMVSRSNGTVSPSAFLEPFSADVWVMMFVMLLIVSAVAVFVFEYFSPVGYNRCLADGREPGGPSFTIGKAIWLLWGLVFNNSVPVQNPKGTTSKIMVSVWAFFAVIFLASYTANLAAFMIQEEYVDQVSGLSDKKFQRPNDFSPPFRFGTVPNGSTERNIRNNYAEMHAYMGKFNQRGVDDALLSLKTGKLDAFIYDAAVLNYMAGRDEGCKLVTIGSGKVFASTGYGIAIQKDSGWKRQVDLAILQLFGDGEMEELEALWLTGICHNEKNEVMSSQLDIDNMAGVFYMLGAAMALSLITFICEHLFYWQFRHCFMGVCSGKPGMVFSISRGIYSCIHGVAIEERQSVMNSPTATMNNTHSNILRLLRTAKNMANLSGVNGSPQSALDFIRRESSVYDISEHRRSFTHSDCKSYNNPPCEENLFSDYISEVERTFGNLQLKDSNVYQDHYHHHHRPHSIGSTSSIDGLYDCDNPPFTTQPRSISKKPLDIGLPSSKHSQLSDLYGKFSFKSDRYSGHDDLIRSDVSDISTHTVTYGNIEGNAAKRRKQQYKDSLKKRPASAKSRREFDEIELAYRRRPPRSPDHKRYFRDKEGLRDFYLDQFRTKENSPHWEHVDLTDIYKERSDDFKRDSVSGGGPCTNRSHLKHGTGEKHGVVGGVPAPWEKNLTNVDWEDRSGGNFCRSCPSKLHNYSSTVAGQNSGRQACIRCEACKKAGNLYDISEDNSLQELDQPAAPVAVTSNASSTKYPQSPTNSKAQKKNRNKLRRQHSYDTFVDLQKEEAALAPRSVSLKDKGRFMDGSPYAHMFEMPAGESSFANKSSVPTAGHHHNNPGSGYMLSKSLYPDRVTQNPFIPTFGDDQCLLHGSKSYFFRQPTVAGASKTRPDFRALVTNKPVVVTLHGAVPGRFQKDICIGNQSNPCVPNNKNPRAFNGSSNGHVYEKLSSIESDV
assayRemarks: Antagonist activity at rat recombinant NR1-NR2B receptor expressed in Xenopus oocytes at holding potential of -40mV by two-electrode voltage-clamp electrophysiology
measure: pIC50
The value called pIC50 is obtained by taking minus log10 of the concentration in mol/L.

Challenge: Glutamate receptor ionotropic, NMDA 1/2B (Rattus norvegicus, UniProt Q00960+P35439) / pIC50 / O=C(O)c1ccc(-n2c(/C=C/c3cccc([N+](=O)[O-])c3)nc3ccc(Cl)cc3c2=O)cc1 : value?
Response given: 4.89

----------
testSystem: Glutamate receptor 1 (Rattus norvegicus)
Sequence (P19490 whole entry): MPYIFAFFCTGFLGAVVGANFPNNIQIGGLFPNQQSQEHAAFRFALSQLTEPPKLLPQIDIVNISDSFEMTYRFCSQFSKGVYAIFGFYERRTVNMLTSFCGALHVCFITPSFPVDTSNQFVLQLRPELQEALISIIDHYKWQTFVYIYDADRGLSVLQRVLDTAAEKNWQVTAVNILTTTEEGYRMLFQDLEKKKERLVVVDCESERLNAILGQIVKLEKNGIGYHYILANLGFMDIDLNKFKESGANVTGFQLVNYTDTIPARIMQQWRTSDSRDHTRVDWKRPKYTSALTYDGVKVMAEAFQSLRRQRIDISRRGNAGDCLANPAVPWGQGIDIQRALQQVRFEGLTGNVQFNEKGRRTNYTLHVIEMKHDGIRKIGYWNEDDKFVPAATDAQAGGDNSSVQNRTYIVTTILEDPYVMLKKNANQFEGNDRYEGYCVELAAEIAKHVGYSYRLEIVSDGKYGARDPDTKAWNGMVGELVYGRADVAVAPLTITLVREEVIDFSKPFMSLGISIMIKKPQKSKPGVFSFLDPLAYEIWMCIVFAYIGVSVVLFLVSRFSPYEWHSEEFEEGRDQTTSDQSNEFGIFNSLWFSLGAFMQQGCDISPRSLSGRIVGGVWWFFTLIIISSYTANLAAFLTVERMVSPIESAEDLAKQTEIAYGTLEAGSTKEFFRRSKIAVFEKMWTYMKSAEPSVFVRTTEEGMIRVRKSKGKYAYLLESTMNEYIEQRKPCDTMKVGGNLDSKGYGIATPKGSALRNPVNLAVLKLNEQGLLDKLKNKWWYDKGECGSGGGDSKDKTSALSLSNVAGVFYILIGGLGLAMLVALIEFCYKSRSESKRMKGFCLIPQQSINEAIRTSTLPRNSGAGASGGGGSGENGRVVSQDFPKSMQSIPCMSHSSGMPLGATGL
assayRemarks: Antagonist activity at rat recombinant GLuR1 expressed in Xenopus oocytes assessed as inhibition of glutamate-induced current by two-electrode voltage-clamp electrophysiology
measure: IC50 (µM)
Please reply with the bare figure in µM and do not write the unit itself.

Challenge: Return IC50 measured with Glutamate receptor 1 (Rattus norvegicus) given this compound: O=C(O)c1ccc(-n2c(/C=C/c3cccc([N+](=O)[O-])c3)nc3ccc(Cl)cc3c2=O)cc1
Response given: 7

----------
testSystem: Glutamate receptor ionotropic, NMDA 1/2A (Rattus norvegicus, UniProt Q00959+P35439)
Sequence (Q00959 whole entry, other chains not shown): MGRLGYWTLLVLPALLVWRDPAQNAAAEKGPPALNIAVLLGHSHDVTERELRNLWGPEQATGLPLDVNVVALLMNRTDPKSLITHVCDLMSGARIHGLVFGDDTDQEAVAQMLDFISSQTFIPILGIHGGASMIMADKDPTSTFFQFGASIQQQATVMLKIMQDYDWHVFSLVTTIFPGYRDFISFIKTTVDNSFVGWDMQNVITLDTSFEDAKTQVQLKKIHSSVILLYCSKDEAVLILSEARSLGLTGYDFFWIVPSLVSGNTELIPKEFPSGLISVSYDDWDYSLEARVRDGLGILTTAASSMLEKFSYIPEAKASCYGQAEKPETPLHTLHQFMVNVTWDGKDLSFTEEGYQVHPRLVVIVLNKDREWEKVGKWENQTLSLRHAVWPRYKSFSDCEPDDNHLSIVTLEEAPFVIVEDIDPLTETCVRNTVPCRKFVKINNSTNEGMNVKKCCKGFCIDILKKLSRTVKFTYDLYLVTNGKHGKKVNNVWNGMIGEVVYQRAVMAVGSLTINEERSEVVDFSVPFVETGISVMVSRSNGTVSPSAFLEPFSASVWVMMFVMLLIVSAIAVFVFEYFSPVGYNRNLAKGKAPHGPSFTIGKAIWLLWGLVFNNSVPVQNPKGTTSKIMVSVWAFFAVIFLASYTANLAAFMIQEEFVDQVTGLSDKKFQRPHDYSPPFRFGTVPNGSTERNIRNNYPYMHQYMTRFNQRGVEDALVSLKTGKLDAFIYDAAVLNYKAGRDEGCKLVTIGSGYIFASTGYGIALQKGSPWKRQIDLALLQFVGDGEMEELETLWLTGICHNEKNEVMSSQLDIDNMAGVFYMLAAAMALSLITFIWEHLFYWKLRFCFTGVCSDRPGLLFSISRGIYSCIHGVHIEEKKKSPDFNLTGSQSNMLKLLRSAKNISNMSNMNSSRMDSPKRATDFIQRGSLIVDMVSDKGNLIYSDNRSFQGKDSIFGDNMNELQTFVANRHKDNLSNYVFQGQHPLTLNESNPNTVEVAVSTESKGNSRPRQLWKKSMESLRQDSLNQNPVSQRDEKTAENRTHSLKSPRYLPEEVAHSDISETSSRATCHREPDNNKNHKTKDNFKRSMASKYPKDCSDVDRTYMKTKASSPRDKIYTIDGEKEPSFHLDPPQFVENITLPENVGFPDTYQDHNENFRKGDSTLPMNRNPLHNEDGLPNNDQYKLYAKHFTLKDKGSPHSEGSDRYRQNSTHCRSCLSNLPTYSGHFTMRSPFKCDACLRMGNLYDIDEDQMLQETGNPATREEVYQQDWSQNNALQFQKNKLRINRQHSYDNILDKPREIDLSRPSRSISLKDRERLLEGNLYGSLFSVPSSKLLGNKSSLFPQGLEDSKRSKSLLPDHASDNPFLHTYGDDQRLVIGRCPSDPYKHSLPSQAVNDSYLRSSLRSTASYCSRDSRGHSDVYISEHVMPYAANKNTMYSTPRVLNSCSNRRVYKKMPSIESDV
assayRemarks: Antagonist activity at rat recombinant NR1-NR2A receptor expressed in Xenopus oocytes at holding potential of -40mV by two-electrode voltage-clamp electrophysiology
measure: IC50 (µM)
Could you give me the number in µM? Just the number is fine.

Challenge: Observed IC50 on Glutamate receptor ionotropic, NMDA 1/2A (Rattus norvegicus, UniProt Q00959+P35439) for O=C(O)c1ccc(-n2c(/C=C/c3cccc([N+](=O)[O-])c3)nc3ccc(Cl)cc3c2=O)cc1 , please.
Response given: 16
